Entry source: ChEMBL document CHEMBL1201862

tested on: COLO 205; assay: NCI tumour cell line growth inhibition, 48 h
The source made the active and inactive calls. Cut-off read from the data, not from the text of the source: active = GI50 up to about 1.1 µM and inactive = higher. Peptide text beside a SMILES is read from it. * marks the point of attachment. OSu = O=C1CCC(=O)N1O*
assay readout: GI50

Test system COLO 205; read-out GI50; what value for CCN(CC)C1CC(n2cc(C)c(=O)[nH]c2=O)OC1CO (configuration not stated) ?
> 100 µM (inactive)

// query: NCCCCC(NC(=O)C(N)Cc1ccc(O)cc1)C(=O)NC(Cc1ccc(O)cc1)C(=O)NC(CCCCN)C(=O)ON1C(=O)CCC1=O (configuration not stated) (H-YKYK-OSu; configuration not given here)
> 100 µM (inactive)

// query: Cc1cccc(C(C)(C)C)c1NC(=O)C(=O)C(c1cnc2ccccc2n1)[N+](=O)[O-] (configuration not stated)
> 100 µM (inactive)

// query: CC1=C2C(c3ccccc3)(c3ccccc3)C3C=CC2(C=N3)N(C(=O)NC2CCCCC2)C1=O (configuration not stated)
15.9 µM (inactive)

// query: CC(=O)Nc1ccc(NC(=O)c2c(Cl)c(Cl)c(Cl)c(Cl)c2-c2nc3ccccc3[nH]2)cc1
17.6 µM (inactive)

// query: C/C(=N/NC(=S)NCCc1ccccn1)c1cnccn1
3.8 µM (inactive)

// query: COc1ccc(S(=O)(=O)N/N=C\c2cc([N+](=O)[O-])cc(I)c2O)c(OC)c1OC
21.4 µM (inactive)

// query: ON=C1CCC(c2ccccc2)CC1 (configuration not stated)
> 100 µM (inactive)

// query: [N-]=[N+]=NC1OC(=O)C(Cl)=C1N=P(c1ccccc1)(c1ccccc1)c1ccccc1 (configuration not stated)
9.27 µM (inactive)

// query: O=C(/C=C/c1ccc(O)c(O)c1)c1ccc(O)cc1O
14.5 µM (inactive)

// query: C=C(C)CNC(=S)N(N)c1ccc2ccccc2c1
> 100 µM (inactive)

// query: Nc1nc2[nH]cnc2c(=S)[nH]1
1.75 µM (inactive)

// query: CC1=Nc2c(N)nc(N)nc2N(C)C1
> 100 µM (inactive)

// query: O=S(=O)(CCn1c(Sc2ccccc2)c(Sc2ccccc2)c2ccccc21)c1ccccc1
> 100 µM (inactive)

// query: COc1ccc(C(N)=O)cc1/N=N/N(C)C
> 100 µM (inactive)

// query: O=C(N/C(=C\NC1=NCCS1)C(=O)N1CSC[C@@H]1C(=O)O)c1ccccc1
> 100 µM (inactive)

// query: Cc1nn(C(=O)c2ccccc2O)c2c1C(c1ccc3ccccc3c1O)SC(=N)N2 (configuration not stated)
2.4 µM (inactive)

* * *

Consider the following compounds; for each one, report its GI50.
system: NCI-H23; assay: NCI tumour cell line growth inhibition, 48 h
The source made the active and inactive calls. Rule as the data show it: active = GI50 up to about 1.1 µM and inactive = higher. Peptide text beside a SMILES is read from it. * marks the point of attachment. Boc = CC(C)(C)OC(=O)*; OtBu = CC(C)(C)O*

Which GI50 value is on record for Cc1cn(C2OC(CO[Si](C)(C)C(C)(C)C)/C(=C\C#N)C2O[Si](C)(C)C(C)(C)C)c(=O)[nH]c1=O (stereo not drawn) ?
> 100 µM (inactive)

// query: CC1=C(C(=O)Nc2ccccc2C)C(c2ccc(C3C(C(=O)Nc4ccccc4C)=CNC=C3C(=O)Nc3ccccc3C)cc2)C(C(=O)Nc2ccccc2C)=C(C)N1
19.1 µM (inactive)

// query: CC(C)(C)OC(=O)CC(NC(=O)OC(C)(C)C)C(=O)NC(Cc1ccccc1)C(N)=O (stereo not drawn) (Boc-Asp(OtBu)-Phe-NH2; configuration not given here)
> 100 µM (inactive)

* * *

tested on: A498; test: NCI tumour cell line growth inhibition, 48 h
Calls of active or inactive are those of the source. Rule as the data show it: active = GI50 up to about 1.1 µM and inactive = higher.
assay readout: GI50

Test system A498; read-out GI50; what value for O=C1OC(c2ccc([N+](=O)[O-])cc2)=N/C1=C\c1ccc(O)cc1 ?
> 100 µM (inactive)

// query: OCC1CCCC1O (stereo unspecified)
> 100 µM (inactive)

// query: COC(=O)c1ccc(NC(=O)c2cc3c(cc2Br)OCO3)o1
> 100 µM (inactive)

// query: O=c1oc2ccc3ccccc3c2cc1-c1cn2c(n1)sc1ccccc12
> 100 µM (inactive)

// query: Cc1cc(NC(=S)Nc2ccccc2)c(NC(=S)Nc2ccccc2)cc1C
36.1 µM (inactive)

// query: ON=C1CCC(c2ccccc2)CC1 (stereo unspecified)
> 100 µM (inactive)

// query: Cn1cnc2c(NCc3ccccc3)nc(NCCO)nc21
103 µM (inactive)

// query: O=C1c2ccccc2C(=O)c2sc(Nc3ccc(Cl)c(Cl)c3)nc21
16.6 µM (inactive)

// query: CC(C)N(C(=O)c1ccc(NCc2cc(O)ccc2O)cc1)C(C)C
18 µM (inactive)

// query: O=c1oc2ccccc2c(Nc2ccc3c(c2)Oc2ccccc2O3)c1[N+](=O)[O-]
27 µM (inactive)

// query: CC1(C)CCC2=C(O1)/C(=N\Nc1ccc(F)cc1)c1ccccc1C2=O
30.3 µM (inactive)

// query: NCCOc1ccc(/C(=C(/Cl)c2ccccc2)c2ccccc2)cc1
19.1 µM (inactive)

// query: COC(=O)c1cc2c(nc1C)-c1ccccc1OS2(=O)=O
> 100 µM (inactive)

// query: N#C/C(N)=C(C#N)/N=C/NCCO
> 100 µM (inactive)

// query: CCCCSN1C(=O)c2ccccc2C1=S
> 100 µM (inactive)

// query: O=S(=O)(CCn1c(Sc2ccccc2)c(Sc2ccccc2)c2ccccc21)c1ccccc1
> 100 µM (inactive)

// query: O=C1CCC(=O)C1=NNc1ccccc1
43.6 µM (inactive)

// query: CC(=O)OC1COC(N2c3ccccc3[C@@H]3CCc4c([nH]c5ccccc45)[C@@H]32)C(OC(C)=O)C1OC(C)=O.CC(=O)OC1COC(N2c3ccccc3[C@H]3CCc4c([nH]c5ccccc45)[C@H]32)C(OC(C)=O)C1OC(C)=O (stereo partly specified)
17.7 µM (inactive)

// query: O=c1c2cc(O)c(O)cc2oc2cc(O)c(C3OC(CO)C(O)C(O)C3O)c(O)c12 (stereo unspecified)
> 100 µM (inactive)

// query: C[C@]12CC[C@H]3[C@@H](CC=C4C[C@@H](O)CC[C@@]43C)[C@@H]1C/C(=C\c1ccncc1)[C@@H]2O
13.9 µM (inactive)

// query: CCCCCCCCCCCCCCCCNC(=O)/C(=C\c1ccc(Cl)c(Cl)c1)NC(=O)c1ccccc1
19.9 µM (inactive)

* * *

tested on: MDA-MB-231; assay: NCI tumour cell line growth inhibition, 48 h
Activity calls are given as the source filed them. Rule as the data show it: active = GI50 up to about 1.1 µM and inactive = higher.
assay readout: GI50

Which GI50 value is on record for O=C1/C(=C\c2cccc(Oc3ccccc3)c2)S(=O)(=O)C(c2ccccc2)N1c1ccccc1Cl (stereo not given) ?
28.2 µM (inactive)

// query: CC(C)NC(=O)OCc1c(COC(=O)NC(C)C)c(-c2ccc(Cl)c(Cl)c2)n2c1CCC2
84.7 µM (inactive)

// query: O=S(=O)(O)c1cccc2cccc(/N=N/c3c(O)ccc4ccccc34)c12
> 100 µM (inactive)

// query: Nc1nc(Cl)c(N)c(NCC2(CO)CC2)n1
> 100 µM (inactive)

// query: Cc1nnc(N)nc1/C=C\c1ccc(Cl)cc1Cl
87.5 µM (inactive)

// query: COc1cc(C2c3cc4c(cc3[C@@H](Nc3ccc(N)cc3)C3COC(=O)[C@H]23)OCO4)cc(OC)c1O (stereo not given in full)
12.3 µM (inactive)

// query: O=C1NC(=O)[C@H]2C3C=CC([C@@H]12)[C@@H]1C(=O)NC(=O)[C@H]31
> 100 µM (inactive)

// query: CN(C)C(=S)Oc1ccc2ccc(=O)oc2c1
> 100 µM (inactive)

// query: Cc1nc2ccc(S(=O)(=O)O)cc2c(=O)n1-c1ccc(C(=O)NN2C(=O)C(Cl)C2c2cccs2)cc1 (stereo not given)
22.9 µM (inactive)

// query: CCc1c(-c2ccc(OC)cc2)oc(OC)c(C)c1=O
75.7 µM (inactive)

* * *

system: UO-31; assay: NCI tumour cell line growth inhibition, 48 h
Activity calls are given as the source filed them. Cut-off read from the data, not from the text of the source: active = GI50 up to about 1.1 µM and inactive = higher.
assay readout: GI50

Which GI50 value is on record for COc1cc2cc(OC(C)=O)c3cc4c(cc3c2c(OC)c1OC)OCO4 ?
> 100 µM (inactive)

// query: Cc1c(/C=N/NC(=O)c2ccc(Cl)cc2)c(=O)n(-c2ccccc2)n1C
95.5 µM (inactive)

// query: Cc1cc(C)nc(NS(=O)(=O)c2ccc(NC(=O)c3cccc4c(N)c5ccccc5nc34)cc2)n1
> 100 µM (inactive)

// query: Cc1ccc(NC(=O)C2C3C=CC(O3)C2C(=O)O)cc1 (centres undefined)
> 100 µM (inactive)

// query: CC1(C)CN(c2ccccc2)C(=O)C1OC(=O)[C@@]1(C)C[C@@H]2C=C[C@H]1C2 (some centres undefined)
13.7 µM (inactive)

// query: Cc1nnc(N)nc1/C=C\c1ccc(Cl)cc1Cl
54.2 µM (inactive)

// query: COc1cc(C23OCC(Cc4cc5c(cc42)OCO5)C3CO)cc(OC)c1OC (centres undefined)
8.95 µM (inactive)

// query: CC1=C2C(c3ccccc3)(c3ccccc3)C3C=CC2(C=N3)N(C(=O)NC2CCCCC2)C1=O (centres undefined)
14.3 µM (inactive)

// query: CCOc1ccc(N/C(Cl)=C(Cl)\C(=C(\Nc2ccc(OCC)cc2)n2nnc3ccccc32)[N+](=O)[O-])cc1
4.45 µM (inactive)
